Reference source: ChEMBL document CHEMBL5042535

- protocol notes: Clearance in rat at 5 mg/kg, iv
- Assay type: ADME, organism-based
- condition context: in vivo
measurement kind: clearance (mL/min/kg)

>  <smiles code>
c1cc(CNc2cc3c(cn2)[nH]c2ccccc23)cc(Oc2ccc3c(c2)OCO3)c1

>  <measurement kind>
clearance

>  <recorded result>
25.3

$$$$

---

Entries and their pIC50 values follow.
- Test system: MCF7
- protocol notes: Antiproliferative activity against human MCF7 cells assessed as reduction in cell viability measured after 24 hrs by MTT assay
- Assay type: functional, cell-based
- condition context: MCF7, 24 h
pIC50: −log10 of the molar value.

>  <smiles code>
CC(C)=CCOc1cccc(CNc2cc3c(cn2)[nH]c2ccccc23)c1

>  <pIC50>
< 6.30

$$$$
>  <smiles code>
COc1ccc(Oc2cccc(CNc3cc4c(cn3)[nH]c3ccccc34)c2)cc1

>  <pIC50>
7.48

$$$$
>  <smiles code>
c1ccc(Oc2ccc(Oc3cccc(CNc4cc5c(cn4)[nH]c4ccccc45)c3)cc2)cc1

>  <pIC50>
< 6.30

$$$$
>  <smiles code>
c1ccc2c(c1)[nH]c1cnc(NC3CCCC3)cc12

>  <pIC50>
6.40

$$$$
>  <smiles code>
Cc1ccccc1Oc1cccc(CNc2cc3c(cn2)[nH]c2ccccc23)c1

>  <pIC50>
7.23

$$$$
>  <smiles code>
COc1ccccc1Oc1cccc(CNc2cc3c(cn2)[nH]c2ccccc23)c1

>  <pIC50>
< 6.30

$$$$
>  <smiles code>
c1ccc2ncc(CNc3cc4c(cn3)[nH]c3ccccc34)cc2c1

>  <pIC50>
< 6.30

$$$$
>  <smiles code>
CC(C)=CCNc1cc2c(cn1)[nH]c1ccccc12

>  <pIC50>
< 6.30

$$$$
>  <smiles code>
c1ccc(COc2cccc(CNc3cc4c(cn3)[nH]c3ccccc34)c2)cc1

>  <pIC50>
< 6.30

$$$$
>  <smiles code>
COc1ccc(COc2cccc(CNc3cc4c(cn3)[nH]c3ccccc34)c2)cc1

>  <pIC50>
< 6.30

$$$$
>  <smiles code>
c1cncc(Oc2cccc(CNc3cc4c(cn3)[nH]c3ccccc34)c2)c1

>  <pIC50>
6.82

$$$$
>  <smiles code>
COc1cccc(Oc2cccc(CNc3cc4c(cn3)[nH]c3ccccc34)c2)c1

>  <pIC50>
6.96

$$$$
>  <smiles code>
c1ccc(-c2ccc(Oc3cccc(CNc4cc5c(cn4)[nH]c4ccccc45)c3)cc2)cc1

>  <pIC50>
< 6.30

$$$$
>  <smiles code>
CC(=O)Nc1ccc(Oc2cccc(CNc3cc4c(cn3)[nH]c3ccccc34)c2)cc1

>  <pIC50>
7.57

$$$$
>  <smiles code>
c1ccc2cc(CNc3cc4c(cn3)[nH]c3ccccc34)ccc2c1

>  <pIC50>
< 6.30

$$$$
>  <smiles code>
c1csc(CNc2cc3c(cn2)[nH]c2ccccc23)c1

>  <pIC50>
6.37

$$$$
>  <smiles code>
Cc1cccc(Oc2cccc(CNc3cc4c(cn3)[nH]c3ccccc34)c2)c1

>  <pIC50>
7.33

$$$$
>  <smiles code>
N#Cc1cccc(Oc2cccc(CNc3cc4c(cn3)[nH]c3ccccc34)c2)c1

>  <pIC50>
< 6.30

$$$$
>  <smiles code>
Cn1cccc1CNc1cc2c(cn1)[nH]c1ccccc12

>  <pIC50>
< 6.30

$$$$
>  <smiles code>
c1ccc2c(c1)[nH]c1cnc(NCC3CCCCC3)cc12

>  <pIC50>
< 6.30

$$$$
>  <smiles code>
CCOc1cccc(CNc2cc3c(cn2)[nH]c2ccccc23)c1

>  <pIC50>
< 6.30

$$$$
>  <smiles code>
c1cc(CNc2cc3c(cn2)[nH]c2ccccc23)cc(OC2CCCC2)c1

>  <pIC50>
< 6.30

$$$$
